B1: Storkhead-box protein 2, residues 64 to 141; numbered along this chain, Q9P2F5 (parent)
chain: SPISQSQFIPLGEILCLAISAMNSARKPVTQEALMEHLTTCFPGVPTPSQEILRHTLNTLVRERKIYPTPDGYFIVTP

Variants of: B1
assay summary: abundance fitness (aPCA) (normalised: wild type 0, dead -1); higher = more abundant; growth selection in yeast, the domain comes from the species named
measurement conditions: Homo sapiens
Task for the reader: assign each of the following variants its reported abundance fitness.
// response body must contain only the number

Lab note: measured abundance fitness of SPISQSQFIPLGEILCLAIWAMNSARKPVTQEALMEHLTTCFPGVPTPSQEILRHTLNTLVRERKIYPTPDGYFIVTP [S20W] was -0.419

// abundance fitness value for SPISQSQFIPLGEILCLAISAMNSARKPVTQEALMEHLTTWFPGVPTPSQEILRHTLNTLVRERKIYPTPDGYFIVTP [C41W] : -0.088

For reference, reported abundance fitness for SPISQSQYIPLGEILCLAISAMNSARKPVTQEALMEHLTTCFPGVPTPSQEILRHTLNTLVRERKIYPTPDGYFIVTP [F8Y] stands at -0.326

Looking up SPISQSQFIPLGEILCLAISAMNSARKPVTQEALMEHLTTCFPGVPTPSQEILRHTLNTLVRERKIYPTPDGYFIVHP [T77H] , I see its abundance fitness listed as -0.084

GET /value?item= SPISQSFFIPLGEILCLAISAMNSARKPVTQEALMEHLTTCFPGVPTPSQEILRHTLNTLVRERKIYPTPDGYFIVTP [Q7F] &field=abundance fitness returns -0.065

Entry SPISQSQFIPLGEILCLAISAMNSARKPVTQEALMEHLTTCFPGVPTPSQEILMHTLNTLVRERKIYPTPDGYFIVTP [R54M] , abundance fitness reported as 0

Recorded result, SPISQSQFIPLGEILCLAISAMNSARKPVTQEALMEHLTTCFPGVPTPSQEILRHTLNWLVRERKIYPTPDGYFIVTP [T59W] , abundance fitness: 0.062

For SPISQSQFIPLGEILCLAISAMNSARKPVTQFALMEHLTTCFPGVPTPSQEILRHTLNTLVRERKIYPTPDGYFIVTP [E32F] the variant record lists abundance fitness as -0.159

GET /value?item= SPISQSQFIVLGEILCLAISAMNSARKPVTQEALMEHLTTCFPGVPTPSQEILRHTLNTLVRERKIYPTPDGYFIVTP [P10V] &field=abundance fitness returns 0.171

Per the records, this variant ( SPISQSQFIPLGEILCLAISAMNSARKPVTQEALMEHLTTPFPGVPTPSQEILRHTLNTLVRERKIYPTPDGYFIVTP [C41P] ) has abundance fitness equal to -0.534

Record SPISQSQFIPLGEILCLAISAMNDARKPVTQEALMEHLTTCFPGVPTPSQEILRHTLNTLVRERKIYPTPDGYFIVTP [S24D] , field abundance fitness: -0.018

Record SPISQSQFIPLGEILCLAISAMNSARKPVTQEALMEHLTTCFPGVPHPSQEILRHTLNTLVRERKIYPTPDGYFIVTP [T47H] , field abundance fitness: -0.166

Please fill in: abundance fitness reported for SPISQSQFIPLGEILCLAISAMNSARKPVTQEALMEHLTTCFPGVPTPSQEILYHTLNTLVRERKIYPTPDGYFIVTP [R54Y] = -0.117

# abundance fitness of SPISQSQFIPLGEILCLNISAMNSARKPVTQEALMEHLTTCFPGVPTPSQEILRHTLNTLVRERKIYPTPDGYFIVTP [A18N] = -0.376

Memo: SPISQSQFIPLGEILCLAISAMNSARWPVTQEALMEHLTTCFPGVPTPSQEILRHTLNTLVRERKIYPTPDGYFIVTP [K27W] , reported abundance fitness: -0.184

Input SPISQSQFIPLGEILCLAISAMNSARKPVTQEALMEHLTTCFPGVPTPSQEILRHTLNTLVRERKIYPTFDGYFIVTP [P70F] . Output abundance fitness: -0.081

Data point: SPISQSQFIPLGEILKLAISAMNSARKPVTQEALMEHLTTCFPGVPTPSQEILRHTLNTLVRERKIYPTPDGYFIVTP [C16K] ; abundance fitness = -0.155

Entry SPISQSQFIPLGEILCLAISAMNSARKPVTQEALMEHLTTCFPGVPTPSQEILRHTLNTLVRNRKIYPTPDGYFIVTP [E63N] ; abundance fitness = -0.028

// recorded abundance fitness for SPISQSQFIPTGEILCLAISAMNSARKPVTQEALMEHLTTCFPGVPTPSQEILRHTLNTLVRERKIYPTPDGYFIVTP [L11T] : -0.278

// recorded abundance fitness for SPISQSQFIPLGEILCLAISAMNSARKPVTQEALMEHLTTCFPGVPTPTQEILRHTLNTLVRERKIYPTPDGYFIVTP [S49T] : -0.16

The variant listed as SPISQSQFIPLGEILCLAISAMNSACKPVTQEALMEHLTTCFPGVPTPSQEILRHTLNTLVRERKIYPTPDGYFIVTP [R26C] has a reported abundance fitness of -0.115

// field: abundance fitness; key: SPISQSQFIPLGEILCLAWSAMNSARKPVTQEALMEHLTTCFPGVPTPSQEILRHTLNTLVRERKIYPTPDGYFIVTP [I19W] ; value = -0.825

All figures here come from the Human Domainome abundance scans (Beltran et al. 2025).
